IC50 overview
tested target: hD3 (Homo sapiens, UniProt P35462)
Construct: purchased BioSignal Packard Inc., Montreal, Canada
Sequence (P35462 whole entry): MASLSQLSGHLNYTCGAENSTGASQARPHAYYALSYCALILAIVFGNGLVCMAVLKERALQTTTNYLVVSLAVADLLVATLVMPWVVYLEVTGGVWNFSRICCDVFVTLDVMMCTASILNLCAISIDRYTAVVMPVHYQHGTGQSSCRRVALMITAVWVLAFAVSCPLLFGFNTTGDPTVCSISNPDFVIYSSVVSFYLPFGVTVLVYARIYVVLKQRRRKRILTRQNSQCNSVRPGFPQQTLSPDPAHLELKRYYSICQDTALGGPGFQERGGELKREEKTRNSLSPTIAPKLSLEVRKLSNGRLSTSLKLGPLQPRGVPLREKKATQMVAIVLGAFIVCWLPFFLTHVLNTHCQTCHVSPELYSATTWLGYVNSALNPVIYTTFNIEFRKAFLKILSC
assay notes: Radioligand binding, dopamine D3 ([3H]spiperone)
test context: Table 4; [3H]spiperone 1 nM; read-out: Binding affinity, IC50 (nM) D3
Answer in nM, number only, no unit symbol.

Example compounds with recorded IC50:
COc1ccc(C2(C)C(=O)c3c(N4CCNCC4)cc(Cl)cc3N(Cc3ccc(-c4ccccc4)cc3)C2=O)cc1 (stereo not shown) [Example 41]	9000
CC1(c2ccc(O)cc2)C(=O)c2c(N3CCNCC3)cc(Cl)cc2N(Cc2ccc(O)cc2)C1=O (stereo not shown) [Example 32]	9110

// below: IC50 requested for another compound
// query IC50 value for entry COc1ccc(C2(C)C(=O)c3c(N4CCNCC4)cc(Cl)cc3N(Cc3cccc(N)c3)C2=O)cc1 (stereo not shown) [Example 25]
9660

###

tested target: 5-HT1a (Homo sapiens, UniProt P08908)
Construct: purchased Euroscreen/BioSignal Packard Inc
Sequence (P08908 whole entry): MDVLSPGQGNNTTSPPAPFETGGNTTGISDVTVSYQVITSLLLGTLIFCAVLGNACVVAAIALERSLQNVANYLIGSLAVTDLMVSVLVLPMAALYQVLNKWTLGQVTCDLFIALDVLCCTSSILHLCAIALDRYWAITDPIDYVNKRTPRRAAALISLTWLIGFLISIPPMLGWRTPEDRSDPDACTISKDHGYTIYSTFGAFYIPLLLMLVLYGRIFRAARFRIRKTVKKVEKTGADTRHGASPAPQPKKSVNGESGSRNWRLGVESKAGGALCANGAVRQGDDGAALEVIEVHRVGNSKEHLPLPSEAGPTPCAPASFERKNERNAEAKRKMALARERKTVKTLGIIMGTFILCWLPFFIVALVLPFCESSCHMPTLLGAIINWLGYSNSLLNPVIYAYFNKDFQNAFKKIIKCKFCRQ
assay notes: Radioligand binding, 5-HT1a ([3H]8-OH-DPAT)
test context: Table 4; [3H]8-OH-DPAT 0.5 nM; read-out: Binding affinity, IC50 (nM) 5-HT1a
parameter measured: IC50 (nM)
Answer in nM, number only, no unit symbol.

Example compounds with recorded IC50:
CC1(c2ccc(O)cc2)C(=O)c2c(N3CCNCC3)cc(Cl)cc2N(CC2CCCCC2)C1=O (stereo not shown) [Example 49]	6300
CC1(c2cccc(O)c2)C(=O)c2c(N3CCNCC3)cc(Cl)cc2N(Cc2ccccc2)C1=O (stereo not shown) [Example 51]	8450
CN1CCN(c2cc(Cl)cc3c2C(=O)C(C)(c2ccc(O)cc2)C(=O)N3Cc2cccc([N+](=O)[O-])c2)CC1 (stereo not shown) [Example 8]	7510

// below: IC50 requested for another compound
// query IC50 value for entry CC1(c2ccc(Br)cc2)C(=O)c2c(N3CCNCC3)cc(Cl)cc2N(Cc2ccccc2)C1=O (stereo not shown) [Example 20]
6360

###

IC50 overview
tested target: hD4.2 receptor (Homo sapiens, UniProt P21917, DEL265-296)
Construct: purchased BioSignal Packard Inc., Montreal, Canada
Sequence (P21917 with tags, fused parts or gaps DEL265-296): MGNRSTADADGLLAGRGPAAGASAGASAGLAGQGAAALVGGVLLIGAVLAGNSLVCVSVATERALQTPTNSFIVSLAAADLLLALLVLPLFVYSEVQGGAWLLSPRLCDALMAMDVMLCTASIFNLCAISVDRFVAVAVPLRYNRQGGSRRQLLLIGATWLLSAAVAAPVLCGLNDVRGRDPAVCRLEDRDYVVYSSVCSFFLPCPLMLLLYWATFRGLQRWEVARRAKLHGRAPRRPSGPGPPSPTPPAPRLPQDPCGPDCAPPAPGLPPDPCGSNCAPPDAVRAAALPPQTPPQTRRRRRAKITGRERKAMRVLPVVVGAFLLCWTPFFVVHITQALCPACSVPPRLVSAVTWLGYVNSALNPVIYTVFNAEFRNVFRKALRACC
assay notes: Radioligand binding, dopamine D4 ([3H]YM-09151-2)
test context: Table 4; [3H]YM-09151-2 0.06 nM; read-out: Binding affinity, IC50 (nM) D4
Method: 2-2: Binding assays of Dopamine Receptor Family The radioligands used were [^3H] spiperone (for hD2L and hD3 receptors, 1 nM) and [^3H] YM-09151-2 (for hD4.2 receptor, 0.06 nM). […] Competition binding studies were carried out with 7-8 concentrations of the test compound run in duplicate tubes, and isotherms from three assays were calculated by computerized nonlinear regression analysis (GraphPad Prism Program, San Diego, […]) to yield median inhibitory concentration (IC50) values.
Answer in nM, number only, no unit symbol.

CC1(c2ccc(O)cc2)C(=O)c2c(N3CCNCC3)cc(Cl)cc2N(Cc2cccnc2)C1=O (centres unmarked)	9240

// query IC50 value for entry COc1ccc(C2(C)C(=O)c3c(N4CCN(C)CC4)cc(Cl)cc3N(Cc3ccccc3)C2=O)cc1 (centres unmarked)
8020

###

IC50 overview
tested target: 5-HT7 (Homo sapiens, UniProt P34969)
Construct: purchased Euroscreen/BioSignal Packard Inc
Sequence (P34969 whole entry): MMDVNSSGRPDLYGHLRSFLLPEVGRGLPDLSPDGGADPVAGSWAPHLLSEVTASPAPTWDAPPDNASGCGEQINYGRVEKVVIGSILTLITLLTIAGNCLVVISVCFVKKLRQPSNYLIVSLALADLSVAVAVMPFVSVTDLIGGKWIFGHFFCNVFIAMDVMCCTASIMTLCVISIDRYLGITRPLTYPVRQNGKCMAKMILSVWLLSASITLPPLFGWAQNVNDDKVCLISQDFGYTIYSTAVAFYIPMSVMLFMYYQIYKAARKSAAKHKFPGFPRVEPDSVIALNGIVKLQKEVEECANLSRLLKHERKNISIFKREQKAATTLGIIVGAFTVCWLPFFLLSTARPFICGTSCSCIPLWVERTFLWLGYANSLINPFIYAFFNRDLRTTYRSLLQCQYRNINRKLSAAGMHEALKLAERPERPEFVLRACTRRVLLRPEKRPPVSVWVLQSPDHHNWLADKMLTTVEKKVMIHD
assay notes: Radioligand binding, 5-HT7 ([3H]LSD)
test context: Table 4; [3H]LSD 3 nM; read-out: Binding affinity, IC50 (nM) 5-HT7
Answer in nM, number only, no unit symbol.

CC1(c2cccc(O)c2)C(=O)c2c(N3CCNCC3)cc(Cl)cc2N(Cc2ccccc2)C1=O (stereo not shown) [Example 51]	7580

// query IC50 value for entry CN1CCN(c2cc(Cl)cc3c2C(=O)C(C)(c2ccc([N+](=O)[O-])cc2)C(=O)N3Cc2ccccc2)CC1 (stereo not shown) [Example 3]
4570
